# System: Parabacteroides distasonis
# Assay Method Text: growth AUC relative to DMSO control (median of replicates) (fraction); higher = more growth (less inhibition), active = hit call of the paper
# Measurement Conditions: 20 µM; 24 h
Threshold check on growth AUC: at or above 1 gives MET, strictly below gives NOT MET.

Here's what some known entries look like.
1) CC(=O)O.NC(N)=NCCCCCCCCNCCCCCCCCN=C(N)N | NOT MET
2) CN(C)NC(=O)CCC(=O)O | MET
3) Cc1cc(C(F)(C(F)(F)F)C(F)(F)F)ccc1NC(=O)c1cccc(I)c1C(=O)NC(C)(C)CS(C)(=O)=O | NOT MET
4) CCOP(=S)(OCC)SCn1c(=O)oc2cc(Cl)ccc21 | NOT MET

Is reported growth AUC greater than or equal to 1 here: `COP(=S)(OC)Oc1cc(Cl)c(Cl)cc1Cl` NOT MET

Is reported growth AUC greater than or equal to 1 here: `COC(=O)NCc1cc(/C(C)=N\OCc2cccc(C)n2)ccc1Cl` NOT MET

Is reported growth AUC greater than or equal to 1 here: CCOP(=S)(Oc1ccc([N+](=O)[O-])cc1)c1ccccc1 (stereo not given) NOT MET

Is reported growth AUC greater than or equal to 1 here: CC(C)=CC1C(C(=O)OCN2C(=O)C3=C(CCCC3)C2=O)C1(C)C (stereo not given) NOT MET

====

# System: Lactobacillus paracasei
# Assay Method Text: growth AUC relative to DMSO control (median of replicates) (fraction); higher = more growth (less inhibition), active = hit call of the paper
# Measurement Conditions: 20 µM; 24 h
Threshold check on growth AUC: at or above 1 gives Yes, strictly below gives No.

1) CNc1cnn(-c2cccc(C(F)(F)F)c2)c(=O)c1Cl | No
2) COC(=O)C(C)(Cl)Cl | Yes
3) CP(=O)(O)CCC(N)C(=O)[O-].[NH4+] (stereo not given) | Yes
4) Cc1ccc(NC(=O)N(C)C)cc1Cl | No
5) CNC(=O)Oc1cc(C)c(SC)c(C)c1 | No

Is reported growth AUC greater than or equal to 1 here: `CCOc1ccccc1OS(=O)(=O)NC(=O)Nc1nc(OC)cc(OC)n1` No

Is reported growth AUC greater than or equal to 1 here: `O=C(O)COc1ccc(Cl)cc1Cl` Yes

Is reported growth AUC greater than or equal to 1 here: `CCCOCC(=Nc1ccc(Cl)cc1C(F)(F)F)n1ccnc1` No

Is reported growth AUC greater than or equal to 1 here: `COc1c(Cl)ccc(Cl)c1Cl` No

Is reported growth AUC greater than or equal to 1 here: `CO/N=C(/C(=O)OC)c1ccccc1CO/N=C(\C)c1cccc(C(F)(F)F)c1` No

Is reported growth AUC greater than or equal to 1 here: `CCOP(=S)(OCC)Oc1cc(-c2ccccc2)on1` No

====

# Test system: Roseburia intestinalis
# Assay Method Text: growth AUC relative to DMSO control (median of replicates) (fraction); higher = more growth (less inhibition), active = hit call of the paper
# Measurement Conditions: 20 µM; 24 h
So I've got a bunch of molecules here, and I need their growth AUC values.
One number for each entry.

Examples with answers:
1) CNC(=O)O/N=C/C(C)(C)SC | 1.03
2) O=C(O)c1cc(Cl)ccc1Cl | 0.993
3) O=S(=O)(c1ccccc1)c1ccccc1 | 0.956
4) CC(C)CC(C)c1sccc1NC(=O)c1cn(C)nc1C(F)(F)F (stereo not drawn) | 0.998
5) CC(C)(C)[C@@H](O)[C@H](Oc1ccc(Cl)cc1)n1cncn1 | 1.08
6) O=C(O)CNCP(=O)(O)O | 0.966
7) Cc1c(F)c(F)c(COC(=O)[C@@H]2[C@H](/C=C(\Cl)C(F)(F)F)C2(C)C)c(F)c1F (mixture of isomers) | 0.986
8) CNC(=O)Oc1cc(C)c(S(C)=O)c(C)c1 (stereo not drawn) | 0.965
9) COP(=O)(OC)C(O)C(Cl)(Cl)Cl (stereo not drawn) | 1
10) CCCCCCCCCc1ccc(O)cc1 | 0.897

Give one value of growth AUC per listed molecule.
1. CC(C)N1C(=O)N(c2ccccc2)CSC1=NC(C)(C)C
2. CC(C)=CC1C(C(=O)OCN2C(=O)C3=C(CCCC3)C2=O)C1(C)C (stereo not drawn)
3. CCCCOC(=O)N(C)SN(C)C(=O)Oc1cccc2c1OC(C)(C)C2
4. O=C(O)C(F)(F)C(F)(F)C(F)(F)C(F)(F)C(F)(F)C(F)(F)C(F)(F)C(F)(F)F
5. CC(Oc1ccc(Oc2ccc(Cl)cc2Cl)cc1)C(=O)O (racemic)
6. Clc1ccccc1-c1nnc(-c2ccccc2Cl)nn1
7. CCNc1nc(Cl)nc(NC(C)(C)C#N)n1
8. CC(C)(C)c1cc([N+](=O)[O-])cc([N+](=O)[O-])c1O

1.02
0.988
0.992
0.975
0.989
1.1
1.03
0.802

====

# Tested on: Collinsella aerofaciens
# Assay Method Text: growth AUC relative to DMSO control (median of replicates) (fraction); higher = more growth (less inhibition), active = hit call of the paper
# Measurement Conditions: 20 µM; 24 h
So I've got a bunch of compounds here, and I need their growth AUC values.
Give bare numbers.

Examples with answers:
1) ClC1=C(Cl)C2(Cl)C3COCC3C1(Cl)C2(Cl)Cl (stereo not drawn) | 1.02
2) C#CCN1CC(=O)N(COC(=O)C2C(C=C(C)C)C2(C)C)C1=O (mixture of isomers) | 1.02
3) O=S1OCC2C(CO1)C1(Cl)C(Cl)=C(Cl)C2(Cl)C1(Cl)Cl (stereo not drawn) | 0.971
4) CC#Cc1cc(C)nc(Nc2ccccc2)n1 | 0.995
5) Oc1cccc2cccnc12 | 0.963

Give one value of growth AUC per listed compound.
1. COP(=S)(OC)Oc1ccc(S(=O)(=O)N(C)C)cc1
2. CCCCNC(=O)n1c(NC(=O)OC)nc2ccccc21
3. COC(=O)N(C(=O)N1CO[C@@]2(C(=O)OC)Cc3cc(Cl)ccc3C2=N1)c1ccc(OC(F)(F)F)cc1
4. COC(=O)N(OC)c1ccccc1COc1ccn(-c2ccc(Cl)cc2)n1
5. Nc1cnn(-c2ccccc2)c(=O)c1Cl

1: 0.977; 2: 0.993; 3: 0.884; 4: 1; 5: 1

Give one value of growth AUC per listed compound.
1. Nc1ccc(Cc2ccc(N)c(Cl)c2)cc1Cl
2. COc1ccc(/C(=C/C(=O)N2CCOCC2)c2ccc(F)cc2)cc1OC
3. CNC(=O)/C=C(\C)OP(=O)(OC)OC
4. Nc1ccc(Cl)cc1

[1, 0.952, 1.04, 0.972]

====

# Tested on: Escherichia coli IAI1
# Assay Method Text: growth AUC relative to DMSO control (median of replicates) (fraction); higher = more growth (less inhibition), active = hit call of the paper
# Measurement Conditions: 20 µM; 24 h
Threshold check on growth AUC: at or above 1 gives satisfied, strictly below gives not satisfied.

Here's what some known entries look like.
1. CCOC(=O)c1cn2nc(OP(=S)(OCC)OCC)cc2nc1C | not satisfied
2. Cc1cc(C(C#N)c2ccc(Cl)cc2)c(Cl)cc1NC(=O)c1cc(I)cc(I)c1O (stereo unspecified) | not satisfied

Moving on to the next molecule.
Is reported growth AUC greater than or equal to 1 here: `Nc1cc(Cl)cc(Cl)c1` satisfied

====

# Test system: Bacteroides caccae
# Assay Method Text: growth AUC relative to DMSO control (median of replicates) (fraction); higher = more growth (less inhibition), active = hit call of the paper
# Measurement Conditions: 20 µM; 24 h
Threshold check on growth AUC: at or above 1 gives satisfied, strictly below gives not satisfied.

Here's what some known entries look like.
1. O=[N+]([O-])c1ccc(Oc2ccc(C(F)(F)F)cc2[N+](=O)[O-])cc1 | not satisfied
2. CCCCCCCCCCCCC1=C(OC(C)=O)C(=O)c2ccccc2C1=O | not satisfied
3. O.[Br-].[Br-].c1cc[n+]2c(c1)-c1cccc[n+]1CC2 | not satisfied

Moving on to the next compound.
Is reported growth AUC greater than or equal to 1 here: `CC(Cl)(Cl)C(=O)O` satisfied

====

# Tested on: Lactobacillus paracasei
# Assay Method Text: growth AUC relative to DMSO control (median of replicates) (fraction); higher = more growth (less inhibition), active = hit call of the paper
# Measurement Conditions: 20 µM; 24 h
Threshold check on growth AUC: at or above 1 gives Criterion met, strictly below gives Criterion not met.

Here's what some known entries look like.
1) CCSC(=O)N1CCCCCC1 | Criterion not met
2) CC(C)OC(=O)Nc1ccccc1 | Criterion met

Is reported growth AUC greater than or equal to 1 here: `CNC(=O)O/N=C(\C)SC` Criterion not met

Is reported growth AUC greater than or equal to 1 here: `CCOP(=S)(OCC)SCS(=O)(=O)C(C)(C)C` Criterion met

Is reported growth AUC greater than or equal to 1 here: `CN(C)C(=S)[S-].CN(C)C(=S)[S-].[Zn+2]` Criterion not met

Is reported growth AUC greater than or equal to 1 here: `S=C1NCCN1` Criterion not met

Is reported growth AUC greater than or equal to 1 here: `CSc1nnc(C(C)(C)C)c(=O)n1N` Criterion met

Is reported growth AUC greater than or equal to 1 here: `CCNc1nc(NC(C)(C)C)nc(SC)n1` Criterion met

Is reported growth AUC greater than or equal to 1 here: `[Cl][Sn]([c]1ccccc1)([c]1ccccc1)[c]1ccccc1` Criterion not met

Is reported growth AUC greater than or equal to 1 here: `O=C(Nc1ccc(F)cc1F)c1cccnc1Oc1cccc(C(F)(F)F)c1` Criterion met

Is reported growth AUC greater than or equal to 1 here: CCC1COC(Cn2cncn2)(c2ccc(Cl)cc2Cl)O1 (stereo not given) Criterion not met

Is reported growth AUC greater than or equal to 1 here: `Clc1ccc(Cl)c(Cl)c1Cl` Criterion met

Is reported growth AUC greater than or equal to 1 here: CC1CCCCC1NC(=O)Nc1ccccc1 (mixture of isomers) Criterion not met

Is reported growth AUC greater than or equal to 1 here: CCC(C)c1cc([N+](=O)[O-])cc([N+](=O)[O-])c1OC(=O)C=C(C)C (stereo not given) Criterion not met

Is reported growth AUC greater than or equal to 1 here: CC(COc1ccc(Oc2ccccc2)cc1)Oc1ccccn1 (stereo not given) Criterion not met

Is reported growth AUC greater than or equal to 1 here: `CNC(=O)/C=C(\C)OP(=O)(OC)OC` Criterion met
